Test system: RPMI-8226
Assay summary: NCI anti-proliferative test, Leukemia RPMI-8226
Type: cell-based, human
pIC50: −log10 of the molar value.
Endpoint: pIC50

query: Consider the compound COc1ccc(-n2c3cssc-3c(NC(=O)c3cc(C(F)(F)F)cc(C(F)(F)F)c3)c2=O)c(OC)c1 [Compound 0058] and give its measured pIC50.
result: > 8.00

----------
System: MALME-3M
Assay summary: NCI anti-proliferative test, Melanoma MALME-3M
Type: cell-based, human
Endpoint: pIC50
By convention, pIC50 is the negative base-10 log of a molar concentration.

query: Consider the compound COc1ccc(-n2c3cssc-3c(NC(=O)c3cc(C(F)(F)F)cc(C(F)(F)F)c3)c2=O)c(OC)c1 and give its measured pIC50.
result: 6.72

----------
System: MDA-MB-435
Assay summary: NCI anti-proliferative test, Breast Cancer MDA-MB-435
Format: cell-based, human
Endpoint: IC50 (nM)
Express it in nM; write the number only.

query: Consider the molecule COc1ccc(-n2c3cssc-3c(NC(=O)c3cc(C(F)(F)F)cc(C(F)(F)F)c3)c2=O)c(OC)c1 and give its measured IC50.
result: 220

----------
Test system: RXF 393
Assay summary: NCI anti-proliferative test, Renal Cancer RXF 393
Type: cell-based, human
Endpoint: IC50 (nM)
Express it in nM; write the number only.

query: Consider the molecule COc1ccc(-n2c3cssc-3c(NC(=O)c3cc(C(F)(F)F)cc(C(F)(F)F)c3)c2=O)c(OC)c1 and give its measured IC50.
result: 40

----------
Test system: 786-0
Assay summary: NCI anti-proliferative test, Renal Cancer 786-0
Assay type: cell-based, human
Endpoint: IC50 (nM)
Express it in nM; write the number only.

query: Consider the molecule COc1ccc(-n2c3cssc-3c(NC(=O)c3cc(C(F)(F)F)cc(C(F)(F)F)c3)c2=O)c(OC)c1 and give its measured IC50.
result: 60

----------
System: MDA-MB-231/ATCC
Assay summary: NCI anti-proliferative test, Breast Cancer MDA-MB-231/ATCC
Type: cell-based, human
Endpoint: IC50

query: Consider the compound COc1ccc(-n2c3cssc-3c(NC(=O)c3cc(C(F)(F)F)cc(C(F)(F)F)c3)c2=O)c(OC)c1 [Compound 0058] and give its measured IC50.
result: 130 nM

----------
Test system: A549/ATCC
Assay summary: NCI anti-proliferative test, Non-Small Cell Lung Cancer A549/ATCC
Assay type: cell-based, human
Endpoint: pIC50
By convention, pIC50 is the negative base-10 log of a molar concentration.

query: Look up pIC50 with A549/ATCC for this compound: COc1ccc(-n2c3cssc-3c(NC(=O)c3cc(C(F)(F)F)cc(C(F)(F)F)c3)c2=O)c(OC)c1 [Compound 0058]
result: 6.38

----------
Tested on: U251
Assay summary: NCI anti-proliferative test, CNS Cancer U251
Type: cell-based, human
Endpoint: IC50 (nM)
Express it in nM; write the number only.

query: Consider the molecule COc1ccc(-n2c3cssc-3c(NC(=O)c3cc(C(F)(F)F)cc(C(F)(F)F)c3)c2=O)c(OC)c1 and give its measured IC50.
result: 150

----------
Tested on: MOLT-4
Assay summary: NCI anti-proliferative test, Leukemia MOLT-4
Assay type: cell-based, human
Endpoint: IC50 (nM)
Express it in nM; write the number only.

query: Look up IC50 with MOLT-4 for this molecule: COc1ccc(-n2c3cssc-3c(NC(=O)c3cc(C(F)(F)F)cc(C(F)(F)F)c3)c2=O)c(OC)c1 [Compound 0058]
result: 150

----------
Test system: NCI-H226
Assay summary: NCI anti-proliferative test, Non-Small Cell Lung Cancer NCI-H226
Format: cell-based, human
Endpoint: IC50 (nM)
Express it in nM; write the number only.

query: Consider the compound COc1ccc(-n2c3cssc-3c(NC(=O)c3cc(C(F)(F)F)cc(C(F)(F)F)c3)c2=O)c(OC)c1 [Compound 0058] and give its measured IC50.
result: 270

----------
Tested on: CAKI-1
Assay summary: NCI anti-proliferative test, Renal Cancer CAKI-1
Type: cell-based, human
Endpoint: pIC50
By convention, pIC50 is the negative base-10 log of a molar concentration.

query: Consider the compound COc1ccc(-n2c3cssc-3c(NC(=O)c3cc(C(F)(F)F)cc(C(F)(F)F)c3)c2=O)c(OC)c1 [Compound 0058] and give its measured pIC50.
result: 6.36
